# Method notes: Pharmacokinetics in CML patients by dose cohort
# Conditions: human, plasma, po, 12 mg
Measured parameter: AUC(0-t)

Given item Cc1ccc(C(=O)NNC(=O)c2c(C)cccc2Cl)cc1C#Cc1cnc2ccccc2c1 [compound of Formula I] , the value recorded as its AUC(0-t) is 3330 ng·h/mL

====

# Method notes: Single ascending dose (SAD) study in healthy male volunteers: pharmacokinetics
# Format: in vivo, human
# Conditions: male, human, plasma, oral, 6 mg, 6 mg (N = 6), geometric mean; read-out: t1/2 (converted)
Measured parameter: half-life (h)
One number for each entry, in h.

Given item "Cc1ccc(C(=O)NNC(=O)c2c(C)cccc2Cl)cc1C#Cc1cnc2ccccc2c1" , the value recorded as its half-life is 17.1

Cited source: patent US20260069584A1
